# IC80 (µg/ml) with constrains per record follows
- Test target: HIV Env, isolate CNE21 (HIV)
- Protocol notes: cell-based or functional assay

# Binder, IC80 (µg/ml) with constrains
rows = [
    ("ePGDM13 (antibody, V domains shown) VH: QAQLVQSGPEVRKPGTSVKVSCKNPGNTLTTYDLHWVRQVPGQGLQWMGWISHEGDKKVIVERFKAKVTIDWDRSTNTAYLQLSGLTSEDTAVYYCAKGSKHRLRDYALYDEDGALNWAVDVDYLANLEFWGQGTAVTVSS VL: DIVLTQSPLSLSVTPGESASISCKSSHSLQHGDRNNYLAWYVQKPGRSPQLLLDLASERASGVPDRFSGSGSEKDFTLKISRVETEDVGTYYCMQGRESPWTFGQGTKVDIK", "0.006 µg/mL"),
    ("ePGDM5 (antibody, V domains shown) VH: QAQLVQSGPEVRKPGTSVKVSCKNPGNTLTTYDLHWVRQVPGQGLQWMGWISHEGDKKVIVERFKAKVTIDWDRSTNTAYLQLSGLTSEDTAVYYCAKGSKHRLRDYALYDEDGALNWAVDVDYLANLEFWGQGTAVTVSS VL: DFVLTQSPLSLSVTPGESASISCKSDHSLQHGDRNNYLAWYVQKPGRSPQLLIDLASERASGVPDRFSGSGSRKDFTLKIDRVEAEDVGTYYCMQGRESPWTFGQGTKVDIK", "0.007 µg/mL"),
    ("ePGDM9 (antibody, V domains shown) VH: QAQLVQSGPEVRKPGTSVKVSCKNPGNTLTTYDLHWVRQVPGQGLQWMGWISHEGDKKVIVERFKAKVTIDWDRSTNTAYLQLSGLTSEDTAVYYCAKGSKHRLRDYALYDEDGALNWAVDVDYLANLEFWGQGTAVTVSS VL: DIVLTQSPLSLSVTPGESASISCKSSQSLIHGDRNNYLAWYVQKPGRSPQLLIDLASERASGVPDRFSGSGSRKDFTLKISRVETEDVGTYYCMQGRESPWTFGQGTKVDIK", "0.007 µg/mL"),
    ("PGDM1400 (antibody, V domains shown) VH: QVHLTQSGPEVRKPGTSVKVSCKAPGNTLKTYDLHWVRSVPGQGLQWMGWISHEGDKKVIVERFKAKVTIDWDRSTNTAYLQLSGLTSGDTAVYYCAKGSKHRLRDYALYDDDGALNWAVDVDYLSNLEFWGQGTAVTVSS VL: DFVLTQSPHSLSVTPGESASISCKSSHSLIHGDRNNYLAWYVQKPGRSPQLLIYLASSRASGVPDRFSGSGSDKDFTLKISRVETEDVGTYYCMQGRESPWTFGQGTKVDIK", "0.011 µg/mL"),
]
